Data provenance: the RNAGym collection of RNA variant scans (doi:10.1093/molbev/msab373)

B1: Azoarcus group I ribozyme (parent)
chain: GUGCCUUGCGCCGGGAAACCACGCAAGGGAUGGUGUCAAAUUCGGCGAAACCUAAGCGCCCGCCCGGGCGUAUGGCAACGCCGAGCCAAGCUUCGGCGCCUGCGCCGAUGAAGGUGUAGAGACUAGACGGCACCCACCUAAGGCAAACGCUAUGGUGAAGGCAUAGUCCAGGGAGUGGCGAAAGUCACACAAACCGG

- Variants of: B1
- protocol: reverse-splicing fitness (ratio to wild type); higher = more active; in vitro selection; Mg2+ level not given
measured.endpoint: reverse-splicing fitness
Respond numerically, and do not add a unit to the figure.

C82G A111U A145G U176A: 0.197
C82G A111C A120C A145G C150A C169G: 0.00768
A111U A120U A145U C169G U176G: 0.00201
C82A A111G A120G A145C C150G C169G U176G: 0.0049
C82U A145C C150A C169U: 0.00854
A111C A120C C169U: 0.183

Turning now to a further variant:
The measured reverse-splicing fitness associated with C82A A111G A120G C150U C169G reads 0.0108
